Please provide measured melting point for the entries that follow.

Incoming: What does the data say about its melting point? Entry: CCOC(=O)c1c(-c2cc(OC)c(OC)c(OC)c2)c(C)n2c1-c1cc(Cl)c(OC)cc1CC2
Outgoing: 172 to 174 °C

Incoming: What does the data say about its melting point? Entry: COc1cc2c(cc1OC)-c1c(C(=O)NC3CCCCC3)c(-c3cc(C)c(O)c(C)c3)c(C)n1CC2
Outgoing: 273 to 276 °C

Incoming: What does the data say about its melting point? Entry: CCOC(=O)c1c(-c2cc(C)c(O)c(C)c2)c(C)n2c1-c1cc(C)c(OC)cc1CC2
Outgoing: 179 to 181 °C

Incoming: What does the data say about its melting point? Entry: CCOC(=O)c1c(-c2cc(C)c(O)c(C)c2)c(C)n2c1-c1c(cc(OC)c(OC)c1OC)CC2
Outgoing: 246 to 251 °C

Incoming: What does the data say about its melting point? Entry: CCOC(=O)c1c(-c2cc(C)c(O)c(C)c2)c(C)n2c1-c1cc(OC)c(OC)cc1C(C)(C)C2
Outgoing: 200 to 202 °C

Incoming: What does the data say about its melting point? Entry: COc1cc2c(cc1OC)-c1c(C(=O)Nc3ccccc3)c(-c3cc(C)c(O)c(C)c3)c(C)n1CC2
Outgoing: 271 to 273 °C

Incoming: What does the data say about its melting point? Entry: CCOC(=O)c1c(-c2cc(OC)c(OC)c(OC)c2)c(C)n2c1-c1cc(OC)c(OC(F)F)cc1CC2
Outgoing: 155 °C

----------
measured.endpoint: melting point

Incoming: What does the data say about its melting point? Entry: CCOC(=O)c1c(-c2cccc3ccccc23)c(C)n2c1-c1cc(OC)c(OCCOC)cc1CC2 [Example 20]
Outgoing: 126 to 128 °C

Incoming: What does the data say about its melting point? Entry: COc1cc2c(cc1OC)-c1c(-c3ccccc3)c(-c3cc(C)c(O)c(C)c3)c(C)n1CC2 [Example 27]
Outgoing: 210 to 214 °C

Incoming: What does the data say about its melting point? Entry: CCOC(=O)c1c(-c2cc(C)c(O)c(C)c2)c(C)n2c1-c1cc(OC)c(Cl)cc1CC2 [Example 17]
Outgoing: 167 to 169 °C

Incoming: What does the data say about its melting point? Entry: COc1cc2c(cc1OC)-c1c(C(=O)N(C)C)c(-c3cc(C)c(O)c(C)c3)c(C)n1CC2 [Example 31]
Outgoing: 259 to 261 °C

Incoming: What does the data say about its melting point? Entry: COc1cc2c(cc1OC)-c1c(C(=O)c3ccccc3)c(-c3cc(C)c(O)c(C)c3)c(C)n1CC2 [Example 26]
Outgoing: 194 to 196 °C

Incoming: What does the data say about its melting point? Entry: CCNC(=O)c1c(-c2cc(C)c(O)c(C)c2)c(C)n2c1-c1cc(OC)c(OC)cc1CC2 [Example 35]
Outgoing: 242 to 244 °C

Incoming: What does the data say about its melting point? Entry: CNC(=O)c1c(-c2cc(C)c(O)c(C)c2)c(C)n2c1-c1cc(OC)c(OC)cc1CC2 [Example 32]
Outgoing: 281 to 283 °C

Incoming: What does the data say about its melting point? Entry: CCOC(=O)c1c(-c2cc(C)c(O)c(C)c2)c(C)n2c1-c1cc(N)c(OC)cc1CC2 [Example 25]
Outgoing: 104 to 106 °C

----------
measured.endpoint: melting point

Incoming: What does the data say about its melting point? Entry: CCOC(=O)c1c(-c2cc(C)c(O)c(C)c2)c(C)n2c1-c1cc(OC(F)F)c(OC)cc1CC2
Outgoing: 152 to 155 °C

Incoming: What does the data say about its melting point? Entry: COc1cc2c(cc1OC)-c1c(C(=O)NC3CC3)c(-c3cc(C)c(O)c(C)c3)c(C)n1CC2
Outgoing: 254 to 256 °C

Incoming: What does the data say about its melting point? Entry: CCOC(=O)c1c(-c2cc(C)c(O)c(C)c2)c(C)n2c1-c1cc([N+](=O)[O-])c(OC)cc1CC2
Outgoing: 209 to 211 °C

Incoming: What does the data say about its melting point? Entry: COc1cc2c(cc1OC)-c1c(C(N)=O)c(-c3cc(C)c(O)c(C)c3)c(C)n1CC2
Outgoing: 229 to 231 °C

Incoming: What does the data say about its melting point? Entry: CCOC(=O)c1c(-c2cc(OC)c(OC)c(OC)c2)c(C)n2c1-c1cc(OC)c(OCCOC)cc1CC2
Outgoing: 152 to 154 °C

----------
measured.endpoint: melting point

Incoming: What does the data say about its melting point? Entry: CCC(C)NC(=O)c1c(-c2cc(C)c(O)c(C)c2)c(C)n2c1-c1cc(OC)c(OC)cc1CC2 (stereo not shown) [Example 36]
Outgoing: 238 to 240 °C

Incoming: What does the data say about its melting point? Entry: CCOC(=O)c1c(-c2cc(C)c(O)c(C)c2)c(C)n2c1-c1cc(OC)c(OC(F)F)cc1CC2 [Example 9]
Outgoing: 126 to 128 °C

Incoming: What does the data say about its melting point? Entry: CCOC(=O)c1c(-c2cc(C)c(O)c(C)c2)c(C)n2c1-c1cc(OC)c(OCCOC)cc1CC2 [Example 18]
Outgoing: 169 to 171 °C

Incoming: What does the data say about its melting point? Entry: CCOC(=O)c1c(-c2cccc(N(C)C)c2)c(C)n2c1-c1cc(OC(F)F)c(OC)cc1CC2 [Example 4]
Outgoing: 107 to 110 °C
